Entries and their measured growth inhibition follow.
- Assay comment: NCI Yeast Anticancer Drug Screen. Data for the bub3 strain (AID 167)
- Conditions used: S. cerevisiae bub3 mutant strain, at 50.0 µM, active compounds read high
- Procedure: Growth inhibition of yeast strains with defined genetic alterations is measured as a screen for potential anti-cancer activity. Selected strains with alterations in DNA damage repair or cell cycle control were exposed to compounds and growth inhibition was measured relative to vehicle treated controls. The strain used in this assay is bub3
About 79,000 compounds went through this panel and 15% of them were active in at least one assay; those are over-represented in the sample as a whole. Calls of active or inactive are those of the source. Cut-off read from the data, not from the text of the source: active = growth inhibition above about 70%; inactive = the rest.

Compound | growth inhibition
COc1ccc2c(c1)C(=O)CC(C(N)=O)C2 (stereo not drawn) | -13.7% (inactive)
Oc1ccc(CN=Cc2ccccc2)cc1 | -15.6% (inactive)
BrC1(Br)C2COCOCC21 (stereo not drawn) | -4.75% (inactive)
C=CCN1C(=O)/C(=C/c2ccc(OCC(=O)O)cc2)SC1=S | -1% (inactive)
O=C(O)CCC(=O)Nc1cc(C(F)(F)F)ccc1Cl | 14.8% (inactive)
COc1cccc(NCNC2Nc3ccccc3N2)c1 | 18.4% (inactive)
O=[N+]([O-])c1ccc(C2SCc3nc4ccccc4n32)cc1 (stereo not drawn) | 23.1% (inactive)
CCCC(=N)OCC | 3.75% (inactive)
CCC1(C)CC(=O)N(C/C=C(\C)CCC(=O)O)C(=O)C1 | 7% (inactive)
CC(C)(C)OC(=O)C(C1NC2C(=O)OCC2(CO)S1)N1C(=O)c2ccccc2C1=O (stereo not drawn) | -1.75% (inactive)
CC(=O)C1C(=O)C(=O)N(c2ccc([N+](=O)[O-])cc2)C1=O (stereo not drawn) | -1.9% (inactive)
NCc1ccc2ccc3ccccc3c2c1 | -4.45% (inactive)
N#Cc1c2c(c(=S)n(-c3ccc(Cl)cc3)c1N)CCCC2 | 6.85% (inactive)

* * *

- Assay comment: NCI Yeast Anticancer Drug Screen. Data for the rad50 strain (AID 155);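 note: 0% = growth of vehicle-only cultures of the same strain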
- Conditions used: S. cerevisiae rad50 strain growth inhibition; at 50.0 µM; active compounds read high
Compounds without any hit were thinned out: in the full panel of roughly 79,000, 15% have a hit.

Compound | growth inhibition (%)
CCOC(=O)/C(=N/Nc1ccc(C)cc1)N1C(=S)C=C(C)NN(C)C1=S | -34.3
O=[N+]([O-])c1ccc2cccc3c2c1CC3 | 24.4
COc1ccc(C(=O)CC(=O)CCC(=O)Nc2cc(C)ccc2C)cc1 | -6.55
O=S(=O)(Nc1cc(C(F)(F)F)ccc1Cl)c1ccc(F)cc1 | -24.3
Cc1cccc(N2CCN(c3ccc4nonc4c3[N+](=O)[O-])CC2)c1 | -5.05
COc1ccc(C2C(Cl)C(=O)N2n2cnc3ccccc3c2=O)cc1OC (stereo unspecified) | -20.7
N#Cc1c(O)c(N=Nc2ccccc2F)c(=O)n2c1[nH]c1ccccc12 | -24.4
CC(NNC(=S)N1CC2CCC(CC2)C1)c1cccc[n+]1[O-] (stereo unspecified) | 93.1
Nc1ccccc1NC(=O)C(F)(F)F | -2.45
OCC1CCNCC1 | 22.1
COc1cc([C@H]2Oc3cc([C@H]4Oc5cc(O)cc(O)c5C(=O)[C@@H]4O)ccc3O[C@@H]2CO)ccc1O | 3.15
NC(=O)c1ccccc1C(=O)c1ccccc1 | -35
CC(C)C1CCC(C)(C(N)=O)C1 (stereo unspecified) | 8.2
Nc1ccc(C(=O)Nc2cccc(OCc3nc(N)nc(N)c3-c3ccc(Cl)cc3)c2)cc1 | 16.6
CCC(C)C1SCC(=O)N1c1nncs1 (stereo unspecified) | 10.6
Cc1nnc2cc1CCCCCCCCC2 | 11.8
Cc1cc(O)c([N+](=O)[O-])c(C)c1[N+](=O)[O-] | 2.2
c1ccc(CCCC2Sc3cccc4cccc(c34)S2)cc1 | -47.2
COc1cc(CNc2nc3c(N)cc(C(F)(F)F)cc3nc2-c2ccccc2)cc(OC)c1OC | 0.25
O=C1OC(c2ccccc2)=CC1(Cc1ccccc1)Cc1ccccc1 | 0.2
Cc1cn(C2CC(O)C(CO)O2)c(=O)nc1N1CCCC1 (stereo unspecified) | -4.2
COc1cc2c(oc(=O)c3c4occc4cc(OC)c23)c2cccc(O)c12 | -31.6
COc1ccc(C2OC(=N)C(=S)N2C)cc1O (stereo unspecified) | -5.9
Cn1cnc2ncnc(NCc3ccc(Cl)c(Cl)c3)c21 | -1.45
COc1cccc(CSCC(=O)O)c1 | -9.3
c1ccc2nc(N3CCCC3)c(N3CCCC3)nc2c1 | -8.75
CC1(C)CCC2(CC1)CC[N+](C)(CCC[N+](C)(C)C)CC2 | -26.6
O=C1c2ccccc2C(=O)N1CCc1ncc(-c2ccccc2)[nH]1 | -16.4
O=C1OC(=O)C2=C1CCC2 | -5
Cn1cnc2c(=O)[nH]cnc21 | 12.9
COC(=O)c1ccc(C(=O)c2ccc(OC)cc2OC)cc1 | -0.1
Cc1c(Cl)cc([N+](=O)[O-])cc1Cl | -13.2
CCCC(=O)Nc1ccccc1 | 18.1
CCCN(CCC)C(=S)S | 43.1
CN(C)CCCNC(=O)N/N=C\c1cccc2ccccc12 | -2.9
CCCCNC(=O)c1cccc(OC)c1OC | 2.25
CCN(CC)C(=O)CN | 8.9
CC(C)(O)C(C)(O)C#CC(C)(O)C(C)(C)O (stereo unspecified) | -2.65
Cc1cc(C)c2c(=O)n(-c3ccc(Br)cc3)c(=S)n(-c3ccc(Br)cc3)c2n1 | 19.2
CNCCCCCNC | -7
NNC(=O)C1CC1 | 0.5
O=CC1OC(c2ccccc2)OC1C1OC(c2ccccc2)OC1C=O (stereo unspecified) | 19.4
CS(=O)(=O)OCCC(COS(C)(=O)=O)NC(=O)c1ccccc1 (stereo unspecified) | -3.75
Cc1ccc(S(=O)(=O)OI(O)CC(F)(F)F)cc1 | -39.1
CC1(C)CC2(C)CC1CC2O (stereo unspecified) | 3.5
CCCCNC(=O)/C(=C\c1ccccc1)NC(C)=O | 50.1
COc1cc2c(cc1O)[C@@H]1Cc3c(cc(OC)c(OC)c3Oc3cc4c(cc3OC)CCN(C)[C@@H]4Cc3ccc(O)cc3)[C@H](C2)N1C | 14.9
N#CC(NC(=O)NCCCl)c1ccccc1 (stereo unspecified) | -8.8
c1ccc2c(c1)Nc1nc3ccccc3nc1N2 | -40
Clc1ccccc1-c1c2ccccc2cc2ccc3ccccc3c12 | -6.75
O=[N+]([O-])c1ccc(OCc2ccc(CBr)cc2)c(Cl)c1 | 4.1
